Molecular target: Nitric oxide synthase 1 (Rattus norvegicus, UniProt P29476)
Sequence (P29476 whole entry): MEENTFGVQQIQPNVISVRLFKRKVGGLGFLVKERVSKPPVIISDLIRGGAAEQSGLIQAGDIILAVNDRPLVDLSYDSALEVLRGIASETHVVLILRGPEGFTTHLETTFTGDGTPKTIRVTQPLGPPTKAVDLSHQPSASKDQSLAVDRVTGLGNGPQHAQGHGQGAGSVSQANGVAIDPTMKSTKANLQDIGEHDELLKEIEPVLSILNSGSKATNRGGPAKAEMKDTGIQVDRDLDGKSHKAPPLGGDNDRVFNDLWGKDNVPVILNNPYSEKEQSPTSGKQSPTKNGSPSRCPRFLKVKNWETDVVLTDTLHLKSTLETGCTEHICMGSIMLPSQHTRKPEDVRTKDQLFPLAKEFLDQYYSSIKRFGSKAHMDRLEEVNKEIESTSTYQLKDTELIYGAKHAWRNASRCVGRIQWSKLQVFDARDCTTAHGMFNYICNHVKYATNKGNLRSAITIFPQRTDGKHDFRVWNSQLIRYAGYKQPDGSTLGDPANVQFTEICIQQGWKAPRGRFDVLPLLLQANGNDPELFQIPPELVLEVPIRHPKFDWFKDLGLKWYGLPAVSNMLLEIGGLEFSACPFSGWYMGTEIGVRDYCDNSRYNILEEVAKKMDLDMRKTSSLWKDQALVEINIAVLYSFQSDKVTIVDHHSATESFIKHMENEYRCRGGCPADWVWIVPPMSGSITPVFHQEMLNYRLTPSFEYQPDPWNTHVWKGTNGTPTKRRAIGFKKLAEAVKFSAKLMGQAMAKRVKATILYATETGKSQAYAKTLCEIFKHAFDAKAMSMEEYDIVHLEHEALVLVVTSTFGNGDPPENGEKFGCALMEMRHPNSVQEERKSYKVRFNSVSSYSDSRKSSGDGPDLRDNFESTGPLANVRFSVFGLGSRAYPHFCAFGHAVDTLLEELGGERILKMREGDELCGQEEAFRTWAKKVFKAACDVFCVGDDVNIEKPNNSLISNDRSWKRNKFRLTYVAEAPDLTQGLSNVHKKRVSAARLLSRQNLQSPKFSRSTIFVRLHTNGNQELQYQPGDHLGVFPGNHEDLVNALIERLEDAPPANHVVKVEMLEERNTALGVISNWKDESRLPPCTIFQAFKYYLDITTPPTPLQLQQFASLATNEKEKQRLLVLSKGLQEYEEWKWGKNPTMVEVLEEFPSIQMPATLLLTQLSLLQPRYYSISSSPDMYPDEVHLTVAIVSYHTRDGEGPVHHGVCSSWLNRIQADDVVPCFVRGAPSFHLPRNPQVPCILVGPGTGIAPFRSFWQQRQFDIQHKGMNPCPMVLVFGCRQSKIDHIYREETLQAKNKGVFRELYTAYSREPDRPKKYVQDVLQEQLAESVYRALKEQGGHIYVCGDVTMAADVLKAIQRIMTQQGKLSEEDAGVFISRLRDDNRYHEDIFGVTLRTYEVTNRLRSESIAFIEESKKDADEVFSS
Experiment: Inhibition of nNOS in Sprague-Dawley rat brain homogenates assessed as conversion of oxyhemoglobin to methemoglobin measured for 10 mins by UV-visible spectrophotometer analysis
Conditions: read-out: IC50
# reported IC50; entries follow
Number first, unit second: that is the form wanted.

Some solved entries appear below for comparison.
substanceSmiles: CN(C)c1cccc2c(S(=O)(=O)NC34CC5CC(CC(C5)C3)C4)cccc12
IC50: 410 nM

substanceSmiles: O=C(NC12CC3CC(CC(C3)C1)C2)c1cc2ccccc2oc1=O
IC50: 850 nM

Proceeding to the next compound to report its IC50.
**Query** Which IC50 is listed for N=C(N)NN ?
**Result** 19400 nM

// data source = ChEMBL document CHEMBL1795278
